# Test system: Fibroblast
# ASSAY_OVERVIEW: Multiplex assay against human fibroblast
# Assay type: toxicity, cell-based
# CONDITION_INFO: 12 h, 1 µM, compound concentration 1 uM, replicate 1
// NB: equality with 30% counts as NO; only Population Tubulin-Different-Phenotype (%) strictly below is YES

Examples from the recorded data:
MOLECULE: CN(c1cc(C(F)(F)F)nc(OCCC(=O)O)n1)c1cccc2c1CCC2
CLASS_ASSIGNMENT: YES
--
MOLECULE: C[C@@H](Oc1cc(-n2cnc3ccc(CN4CCN(C)CC4)cc32)sc1C(N)=O)c1ccccc1C(F)(F)F
CLASS_ASSIGNMENT: NO
--
MOLECULE: Cl.Cn1c2c(c3ccc(Cl)c(Cl)c31)C(C#N)C1(CCNCC1)NC2=O (centres undefined)
CLASS_ASSIGNMENT: YES

Lookup: Strictly below 30% in Population Tubulin-Different-Phenotype (%)? N#CCNC(=O)c1ccc(-c2ccnc(Nc3ccc(N4CCOCC4)cc3)n2)cc1
Found: YES

Lookup: Strictly below 30% in Population Tubulin-Different-Phenotype (%)? Cc1c(P(=S)(c2ccccc2)c2ccccc2)n2ccccc2[n+]1C/C=C/c1ccccc1.[Br-]
Found: NO

Lookup: Strictly below 30% in Population Tubulin-Different-Phenotype (%)? CCCCCNC(=N)N/N=C/c1c[nH]c2ccc(OC)cc12.O=C(O)/C=C\C(=O)O [TEGASEROD MALEATE]
Found: YES

Lookup: Strictly below 30% in Population Tubulin-Different-Phenotype (%)? N#Cc1cccc(C(=O)Nc2cc(-c3ccccc3)nn2-c2ccccc2)c1
Found: NO

Lookup: Strictly below 30% in Population Tubulin-Different-Phenotype (%)? CN1C(=O)[C@@H](NC(=O)c2cc3ccccc3[nH]2)N=C(c2ccccc2)c2ccccc21 [DEVAZEPIDE]
Found: NO

Lookup: Strictly below 30% in Population Tubulin-Different-Phenotype (%)? Oc1cccc(-c2nc(N3CCOCC3)c3oc4ncccc4c3n2)c1
Found: YES
